Recorded values, source paper PMC11299231.

Test system: DU145 (AR-)
Assay: Antiproliferative activity assay
Type: cell-based, human
Details: read-out: IC50 ± SEM, DU145 (AR−); prostate adenocarcinoma cells, 48 h, SRB
pIC50: −log10 of the molar value.
measurement_label: pIC50

>>> data_value("C[C@]12CC[C@H]3[C@@H]([C@H](C/C=C/Cn4cc([C@]5(O)CC[C@H]6[C@@H]7CCc8cc(O)ccc8[C@H]7CC[C@@]65C)nn4)CC4=CC(=O)CC[C@@]43C)[C@@H]1CC[C@@H]2O")
"< 5.30"

###

Tested on: HaCaT
Experiment: Antiproliferative activity assay
Format: cell-based, human
Conditions: read-out: IC50 ± SEM, HaCaT; normal immortalized human keratinocytes, 48 h, SRB
pIC50: −log10 of the molar value.
measurement_label: pIC50

>>> data_value("C[C@]12CC[C@H]3[C@@H]([C@H](C/C=C/Cn4cc([C@]5(O)CC[C@H]6[C@@H]7CCc8cc(O)ccc8[C@H]7CC[C@@]65C)nn4)CC4=CC(=O)CC[C@@]43C)[C@@H]1CC[C@@H]2O")
"< 5.30"
